Target or system: LdMAPK1 (Leishmania donovani, UniProt E2CWC1)
Construct: GST fused rLdMAPK1 (pGEX-KG-LdMAPK1), expressed in E. coli
Sequence (E2CWC1 1-358): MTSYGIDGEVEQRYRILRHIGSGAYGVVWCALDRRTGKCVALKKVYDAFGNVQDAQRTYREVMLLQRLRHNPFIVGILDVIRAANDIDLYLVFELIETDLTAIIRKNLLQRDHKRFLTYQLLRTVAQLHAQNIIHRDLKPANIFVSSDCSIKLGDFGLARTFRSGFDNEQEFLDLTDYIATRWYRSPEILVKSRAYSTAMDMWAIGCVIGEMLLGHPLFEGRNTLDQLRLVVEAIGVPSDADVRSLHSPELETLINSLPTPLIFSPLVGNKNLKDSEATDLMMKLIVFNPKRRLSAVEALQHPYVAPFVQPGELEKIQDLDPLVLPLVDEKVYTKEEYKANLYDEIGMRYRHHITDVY
Experiment: Kinase-Glo Plus ATP consumption assay with recombinant HSP90 or HSP70 as substrate; Dixon plot
Experimental endpoint: pKi
Value format note: pKi is -log10 of concentration (mol/L); just state the number.

Qu. Value wanted: pKi (LdMAPK1 (Leishmania donovani, UniProt E2CWC1)) of entry `CCOc1ccc(C=C2SC(=O)N(CCN)C2=O)cc1`
Ans. 5.57
